SYSTEM NAME: hemagglutinin HA1 subunit H5 (recombinant, Abcam ab190125) (Influenza A virus A/Vietnam/1203/2004 …, UniProt Q6DQ33 17-346)
METHOD SUMMARY: SPR; 10 mM K+
COND: protein: commercial; parallel intramolecular G4
VALUE KIND: Kd (nM)
Hi! Could you send only the number? It should be in nM, unit omitted.

Task: Which measured Kd value corresponds to TTGGGGTTATTAAGGGAGGGCGGGGGTT (structured_DNA) [G7-TTATTAA] ?
Result: 30

Origin of values: paper PMC7022617
